Measured values drawn from patent US20230255881A1 for this set.

# PROCEDURE_TEXT: clinical
# DETAILS: both, human, in vivo, po, 2.5 mg, AUC2 hrs

MOLECULE: CN(C)CCc1c[nH]c2ccc(C[C@H]3COC(=O)N3)cc12
AUC(0-t) [ng·h/mL]: 4.72

====

# PROCEDURE_TEXT: clinical
# DETAILS: human, in vivo, sc, 6 mg
# Experimental: The final treatment administered was 3.8 mg on a 10 cm^2 patch using an applicator with 0.52 Joule of application energy in the intracutaneous microneedle system described herein. The products tested were: […] This was a single-center, open-label, randomized five-way crossover study (Part 1) followed by a sequential study of two additional treatments (Parts 2 and 3). […] After completion of the seven dosing days, subjects were assessed one final time and dismissed from the study. […]

MOLECULE: CNS(=O)(=O)Cc1ccc2[nH]cc(CCN(C)C)c2c1 [SC Suma]
AUC0-last Dose [ng·h/mL/mg]: 16.8
